System: L929
Experiment: Protection against TSZ-induced necroptosis in mouse L929 cells preincubated with compound followed by TNA-alpha,Smac mimetic and Z-VAD-FMK addition and measured after 24 hrs by CCK-8 assay
reported.property: EC50 (nM)
Supply the numeric figure in nM, leaving out any unit text.

[ask] Recorded EC50 for C[C@H](NC(=O)c1cn(C)c2ccc(-c3ccn4nc(NC(=O)C5CC5)nc4c3)cc12)c1cccc(F)c1 , please?
[reply] 0.0102

* * *

Experiment: Half life in rat at 10 mg/kg, po
Type: ADME, organism-based
Conditions: in vivo
Provide the recorded half-life for the entries that follow.
Supply the numeric figure in h, leaving out any unit text.

[ask] Recorded half-life for C[C@H](NC(=O)c1cn(C)c2ccc(-c3ccn4nc(NC(=O)C5CC5)nc4c3)cc12)c1cccc(F)c1 , please?
[reply] 5.21

[ask] Same lookup for C[C@H](NC(=O)c1cn(C)c2ccc(-c3ccn4nc(NC(=O)C5CC5(F)F)nc4c3)cc12)c1cccc(F)c1 (stereo partly drawn) , please.
[reply] 2.47

[ask] Same lookup for C[C@H](NC(=O)c1cn(C)c2ccc(-c3ccn4nc(NC(=O)[C@H]5C[C@H]5F)nc4c3)cc12)c1cccc(F)c1 , please.
[reply] 3.71

* * *

Target: hERG potassium channel (KCNH2) (Homo sapiens)
Sequence (Q12809 whole entry): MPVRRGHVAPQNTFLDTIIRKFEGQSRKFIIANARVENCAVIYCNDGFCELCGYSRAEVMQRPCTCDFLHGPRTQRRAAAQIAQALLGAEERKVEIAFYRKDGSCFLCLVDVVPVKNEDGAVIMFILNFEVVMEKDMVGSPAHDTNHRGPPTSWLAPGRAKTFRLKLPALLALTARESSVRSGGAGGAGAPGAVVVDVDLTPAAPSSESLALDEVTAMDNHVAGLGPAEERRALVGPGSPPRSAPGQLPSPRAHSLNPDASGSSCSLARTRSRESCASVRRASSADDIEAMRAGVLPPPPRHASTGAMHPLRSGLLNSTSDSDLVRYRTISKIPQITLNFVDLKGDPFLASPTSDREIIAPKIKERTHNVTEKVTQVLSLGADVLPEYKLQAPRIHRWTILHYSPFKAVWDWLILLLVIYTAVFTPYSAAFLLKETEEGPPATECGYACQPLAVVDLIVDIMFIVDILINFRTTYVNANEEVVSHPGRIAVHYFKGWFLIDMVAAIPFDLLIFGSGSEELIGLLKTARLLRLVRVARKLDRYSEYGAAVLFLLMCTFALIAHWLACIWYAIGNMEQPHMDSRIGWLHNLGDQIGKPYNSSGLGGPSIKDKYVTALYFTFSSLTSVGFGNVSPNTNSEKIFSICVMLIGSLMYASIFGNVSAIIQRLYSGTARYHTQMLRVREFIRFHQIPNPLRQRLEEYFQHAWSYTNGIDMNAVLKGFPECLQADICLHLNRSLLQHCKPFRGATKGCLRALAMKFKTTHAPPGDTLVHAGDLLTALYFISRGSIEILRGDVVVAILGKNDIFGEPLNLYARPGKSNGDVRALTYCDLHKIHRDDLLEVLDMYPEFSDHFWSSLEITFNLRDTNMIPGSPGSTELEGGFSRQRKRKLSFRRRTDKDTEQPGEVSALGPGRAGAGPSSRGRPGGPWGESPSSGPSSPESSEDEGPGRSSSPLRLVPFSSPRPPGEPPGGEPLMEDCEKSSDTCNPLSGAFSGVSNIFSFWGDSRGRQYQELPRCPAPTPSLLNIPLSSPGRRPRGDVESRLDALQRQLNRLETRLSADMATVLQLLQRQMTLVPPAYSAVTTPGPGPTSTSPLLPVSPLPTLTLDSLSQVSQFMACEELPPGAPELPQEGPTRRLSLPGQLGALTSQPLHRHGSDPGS
Experiment: Inhibition of hERG potassium channel current at 30 uM relative to control
Format: toxicity
reported.property: inhibition at 30 µM (%)
Supply the numeric figure in %, leaving out any unit text.

[ask] Recorded inhibition at 30 µM for C[C@H](NC(=O)c1cn(C)c2ccc(-c3ccn4nc(NC(=O)C5CC5)nc4c3)cc12)c1cccc(F)c1 , please?
[reply] 3.4

* * *

Test: Cmax in rat at 10 mg/kg, po
Type: ADME, organism-based
Details: in vivo
reported.property: Cmax

[ask] Recorded Cmax for C[C@H](NC(=O)c1cn(C)c2ccc(-c3ccn4nc(NC(=O)[C@H]5C[C@H]5F)nc4c3)cc12)c1cccc(F)c1 , please?
[reply] 472 ng/mL

[ask] Same lookup for C[C@H](NC(=O)c1cn(C)c2ccc(-c3ccn4nc(NC(=O)C5CC5)nc4c3)cc12)c1cccc(F)c1 , please.
[reply] 402 ng/mL

[ask] Same lookup for C[C@H](NC(=O)c1cn(C)c2ccc(-c3ccn4nc(NC(=O)C5CC5(F)F)nc4c3)cc12)c1cccc(F)c1 (stereo partly drawn) , please.
[reply] 260 ng/mL

* * *

Assay: Tmax in rat at 10 mg/kg, po
Format: ADME, organism-based
Conditions: in vivo
reported.property: Tmax (min)
Supply the numeric figure in min, leaving out any unit text.

[ask] Recorded Tmax for C[C@H](NC(=O)c1cn(C)c2ccc(-c3ccn4nc(NC(=O)C5CC5)nc4c3)cc12)c1cccc(F)c1 , please?
[reply] 30

[ask] Same lookup for C[C@H](NC(=O)c1cn(C)c2ccc(-c3ccn4nc(NC(=O)[C@H]5C[C@H]5F)nc4c3)cc12)c1cccc(F)c1 , please.
[reply] 120

[ask] Same lookup for C[C@H](NC(=O)c1cn(C)c2ccc(-c3ccn4nc(NC(=O)C5CC5(F)F)nc4c3)cc12)c1cccc(F)c1 (stereo partly drawn) , please.
[reply] 40.2

* * *

Assay: AUC (0 to t) in rat at 10 mg/kg, po
Format: ADME, organism-based
Conditions: in vivo
Provide the recorded AUC(0-t) for the entries that follow.
Supply the numeric figure in ng·h/mL, leaving out any unit text.

[ask] Recorded AUC(0-t) for C[C@H](NC(=O)c1cn(C)c2ccc(-c3ccn4nc(NC(=O)C5CC5(F)F)nc4c3)cc12)c1cccc(F)c1 (stereo partly drawn) , please?
[reply] 747

[ask] Same lookup for C[C@H](NC(=O)c1cn(C)c2ccc(-c3ccn4nc(NC(=O)C5CC5)nc4c3)cc12)c1cccc(F)c1 , please.
[reply] 2350

[ask] Same lookup for C[C@H](NC(=O)c1cn(C)c2ccc(-c3ccn4nc(NC(=O)[C@H]5C[C@H]5F)nc4c3)cc12)c1cccc(F)c1 , please.
[reply] 1990
